Catalogue of compounds with associated pIC50
study.target: UniProtKB Q9NR96
Sequence (Q9NR96 26-1032): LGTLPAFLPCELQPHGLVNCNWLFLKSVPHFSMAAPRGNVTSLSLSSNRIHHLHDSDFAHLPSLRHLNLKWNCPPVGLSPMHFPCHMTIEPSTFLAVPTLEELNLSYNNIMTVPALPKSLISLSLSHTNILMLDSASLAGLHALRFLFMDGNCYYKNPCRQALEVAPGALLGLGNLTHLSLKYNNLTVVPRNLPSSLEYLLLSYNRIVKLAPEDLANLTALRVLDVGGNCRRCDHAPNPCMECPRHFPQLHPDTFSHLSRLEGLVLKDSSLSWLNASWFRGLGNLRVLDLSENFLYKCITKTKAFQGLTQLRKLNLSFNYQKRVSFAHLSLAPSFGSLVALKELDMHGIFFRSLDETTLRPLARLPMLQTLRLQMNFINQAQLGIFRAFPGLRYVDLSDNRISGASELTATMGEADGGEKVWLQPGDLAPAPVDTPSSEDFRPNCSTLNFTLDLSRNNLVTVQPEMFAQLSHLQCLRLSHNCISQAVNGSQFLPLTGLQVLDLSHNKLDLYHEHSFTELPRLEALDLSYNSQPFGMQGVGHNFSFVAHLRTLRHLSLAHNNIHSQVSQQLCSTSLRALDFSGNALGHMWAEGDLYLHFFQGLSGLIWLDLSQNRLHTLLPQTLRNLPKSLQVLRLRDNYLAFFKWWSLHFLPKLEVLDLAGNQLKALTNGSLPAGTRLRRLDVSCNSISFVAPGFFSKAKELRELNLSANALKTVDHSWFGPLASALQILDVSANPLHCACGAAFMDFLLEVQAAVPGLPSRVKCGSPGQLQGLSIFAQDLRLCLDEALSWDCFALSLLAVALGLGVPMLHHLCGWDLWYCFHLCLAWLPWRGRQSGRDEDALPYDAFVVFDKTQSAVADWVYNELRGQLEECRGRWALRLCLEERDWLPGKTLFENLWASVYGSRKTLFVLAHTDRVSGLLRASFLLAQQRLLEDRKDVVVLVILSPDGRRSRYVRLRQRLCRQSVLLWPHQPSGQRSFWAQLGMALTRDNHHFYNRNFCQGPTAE
assay.remarks: TLR9 inhibition reporter assay (HEK-Blue cells, SEAP reporter, ODN2006 stimulation)
conditions: HEK-Blue cells overexpressing human TLR9, ODN2006 5 nM
pIC50: −log10 of the molar value.
measured.property: pIC50

compound	study.target	limit.sign	assay.value
COc1ccc(-c2[nH]c3ccc(C4CCN(C(=O)CN(C)C)CC4)cc3c2C)cc1OC	UniProtKB Q9NR96	=	5.24
COc1ccc(-c2[nH]c3ccc(C4CCN(C5CCN(c6ccccc6)C5)CC4)cc3c2C)cc1OC (centres unmarked)	UniProtKB Q9NR96	≤	4.30
COc1ccc(-c2[nH]c3ccc(C4CCN(C(=O)CN5CCC(N(C)C)CC5)CC4)cc3c2C)cc1OC	UniProtKB Q9NR96	=	4.94
CCc1c(-c2ccc(OC)c(OC)c2)[nH]c2c(F)cc(C3CCNCC3)cc12	UniProtKB Q9NR96	=	5.94
COc1ccc(-c2[nH]c3ccc(C4CCN(C(=O)CCC(N)=O)CC4)cc3c2CC(F)(F)F)cc1OC	UniProtKB Q9NR96	≤	4.30
COc1ccc(-c2[nH]c3ccc(C4CCN(CC(=O)N5CCC(N6CCN(C)CC6)CC5)CC4)cc3c2CC(F)(F)F)cc1OC	UniProtKB Q9NR96	=	6.57
COc1ccc(-c2[nH]c3ccc(C4CCN(C5CCN(Cc6ccco6)CC5)CC4)cc3c2C)cc1OC	UniProtKB Q9NR96	=	6.76
COc1ccc(-c2[nH]c3ccc(C4CCN(C(=O)CN5CCC[C@H](C(=O)N6CC[C@H](O)C6)C5)CC4)cc3c2C(C)C)cc1OC	UniProtKB Q9NR96	=	5.51
CCc1c(-c2ccc(OC)c(OC)c2)[nH]c2ccc(C3CCN(C4CCN(Cc5c(C)noc5C)CC4)CC3)cc12	UniProtKB Q9NR96	=	5.85
COc1ccc(-c2[nH]c3ccc(C4CCN(CC(=O)NCCCN(C)C)CC4)cc3c2CC(F)(F)F)cc1OC	UniProtKB Q9NR96	=	6.26
COc1ccc(-c2[nH]c3ccc(C4CCN(C(=O)C[C@@H](C)O)CC4)cc3c2CC(F)(F)F)cc1OC	UniProtKB Q9NR96	=	4.40
COc1ccc(-c2[nH]c3ccc(C4CCN(C(=O)Cc5c[nH]cn5)CC4)cc3c2CC(F)(F)F)cc1OC	UniProtKB Q9NR96	=	5.11
COc1ccc(-c2[nH]c3ccc(C4CCN(C(=O)CNCCO)CC4)cc3c2C(C)C)cc1OC	UniProtKB Q9NR96	=	5.93
CCc1c(-c2ccc(OC)c(OC)c2)[nH]c2ccc(C3CCN(C(=O)CN4CCCC(C(=O)N(CC)CC)C4)CC3)cc12 (centres unmarked) [Example 168]	UniProtKB Q9NR96	=	6.06
COc1ccc(-c2[nH]c3ccc(C4CCN(C5CCN(C6CCC6)CC5)CC4)cc3c2C)cc1OC	UniProtKB Q9NR96	=	6.26
COc1ccc(-c2[nH]c3ccc(C4CCN(C(=O)CNCCOCCO)CC4)cc3c2C(C)C)cc1OC	UniProtKB Q9NR96	=	5.66
COc1ccc(-c2[nH]c3ccc(C4CCN(C(=O)CN5CCC[C@H](C(=O)N6CCC(CCO)CC6)C5)CC4)cc3c2C(C)C)cc1OC	UniProtKB Q9NR96	=	5.64
COc1ccc(-c2[nH]c3ccc(C4CCN(Cc5cnc(C)[nH]5)CC4)cc3c2C(C)C)cc1OC	UniProtKB Q9NR96	=	5.90
COc1ccc(-c2[nH]c3ccc(C4CCN(C5CCN(CCCSC)CC5)CC4)cc3c2C)cc1OC	UniProtKB Q9NR96	=	6.94
COc1ccc(-c2[nH]c3ccc(C4CCN(Cc5csc(N)n5)CC4)cc3c2C)cc1OC	UniProtKB Q9NR96	=	5.96
COc1ccc(-c2[nH]c3ccc(C4CCN(C(=O)CN5CCC[C@H](C(=O)N6CCN(CCN7CCCC7)CC6)C5)CC4)cc3c2C(C)C)cc1OC	UniProtKB Q9NR96	=	6.11
COc1ccc(-c2[nH]c3ccc(C4CCN(C(=O)CN5CCC[C@@H](C(=O)NCC(N)=O)C5)CC4)cc3c2C(C)C)cc1OC	UniProtKB Q9NR96	=	5.16
COc1ccc(-c2[nH]c3ccc(C4CCN(C(=O)CN5CCC[C@@H](C(=O)N6CCN(C(C)C)CC6)C5)CC4)cc3c2C(C)C)cc1OC	UniProtKB Q9NR96	=	6.25
COc1ccc(-c2[nH]c3ccc(C4CCN(Cc5cnc(C)[nH]5)CC4)cc3c2C)cc1OC	UniProtKB Q9NR96	=	6.72
COc1ccc(-c2[nH]c3ccc(C4CCN(C(=O)CN5CCC(N6CCN(C)CC6)CC5)CC4)cc3c2C(C)C)cc1OC	UniProtKB Q9NR96	=	6.24
CNC(=O)CN1CCC(c2ccc3[nH]c(-c4ccc(OC)c(OC)c4)c(CC(F)F)c3c2)CC1	UniProtKB Q9NR96	=	5.28
COc1ccc(-c2[nH]c3ccc(C4CCN(Cc5cnn(C)c5)CC4)cc3c2C(C)C)cc1OC	UniProtKB Q9NR96	=	5.69
CCc1c(-c2ccc(OC)c(OC)c2)[nH]c2ccc(C3CCN(C(=O)CN4CCCC(CO)C4)CC3)cc12 (centres unmarked)	UniProtKB Q9NR96	=	5.68
COc1ccc(-c2[nH]c3ccc(C4CCN(C5CCCN(CC(C)C)C5)CC4)cc3c2C)cc1OC (centres unmarked) [Example 416]	UniProtKB Q9NR96	=	6.54

###

pIC50: recorded values
study.target: human TLR8 (Homo sapiens, UniProt Q9NR97)
Sequence (Q9NR97 27-1041): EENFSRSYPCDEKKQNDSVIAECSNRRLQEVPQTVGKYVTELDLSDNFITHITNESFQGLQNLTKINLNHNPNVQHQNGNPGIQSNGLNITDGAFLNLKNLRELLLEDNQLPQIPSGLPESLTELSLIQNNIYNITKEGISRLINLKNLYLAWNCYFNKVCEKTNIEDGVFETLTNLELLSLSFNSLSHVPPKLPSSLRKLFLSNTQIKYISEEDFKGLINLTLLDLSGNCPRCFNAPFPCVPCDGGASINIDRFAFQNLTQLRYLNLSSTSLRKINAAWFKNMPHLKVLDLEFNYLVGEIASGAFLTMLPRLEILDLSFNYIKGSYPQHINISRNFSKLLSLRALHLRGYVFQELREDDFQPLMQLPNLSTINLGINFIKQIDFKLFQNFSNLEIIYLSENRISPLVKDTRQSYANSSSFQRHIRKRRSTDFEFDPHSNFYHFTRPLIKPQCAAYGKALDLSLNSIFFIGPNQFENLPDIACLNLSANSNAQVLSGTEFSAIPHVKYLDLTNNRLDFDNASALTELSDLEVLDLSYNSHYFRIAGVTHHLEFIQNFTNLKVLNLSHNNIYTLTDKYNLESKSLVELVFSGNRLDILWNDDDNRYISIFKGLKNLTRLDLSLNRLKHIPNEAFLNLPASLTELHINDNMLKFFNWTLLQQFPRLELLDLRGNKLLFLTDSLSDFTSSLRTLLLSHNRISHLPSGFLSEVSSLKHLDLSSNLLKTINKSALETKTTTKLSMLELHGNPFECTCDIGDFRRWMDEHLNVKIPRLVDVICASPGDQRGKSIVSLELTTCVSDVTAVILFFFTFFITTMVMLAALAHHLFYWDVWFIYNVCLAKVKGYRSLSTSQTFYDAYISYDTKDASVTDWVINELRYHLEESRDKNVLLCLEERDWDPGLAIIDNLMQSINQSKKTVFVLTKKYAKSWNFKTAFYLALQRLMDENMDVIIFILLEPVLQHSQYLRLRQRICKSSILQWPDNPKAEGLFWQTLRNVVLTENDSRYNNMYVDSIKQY
assay.remarks: TLR8 inhibition reporter assay (HEK-Blue cells, SEAP reporter, R848 stimulation)
conditions: HEK-Blue cells overexpressing human TLR8, R848 15.9 μM
pIC50: −log10 of the molar value.
measured.property: pIC50

compound	study.target	assay.value
COc1ccc(-c2[nH]c3ccc(C4CCN(CC(=O)N(C)C5CCN(C)C5)CC4)cc3c2CC(F)(F)F)cc1OC (stereo not drawn)	human TLR8 (Homo sapiens, UniProt Q9NR97)	7.26
COc1ccc(-c2[nH]c3ccc(C4CCN(C(=O)CN5CCC[C@H](C(=O)N6CCN(Cc7ccc(Br)cc7)CC6)C5)CC4)cc3c2C(C)C)cc1OC	human TLR8 (Homo sapiens, UniProt Q9NR97)	6.26
COc1ccc(-c2[nH]c3ccc(C4CCN(CC(=O)N5CCCC(CO)C5)CC4)cc3c2C(C)C)cc1OC (stereo not drawn)	human TLR8 (Homo sapiens, UniProt Q9NR97)	7.66

###

study.target: human TLR8 (Homo sapiens, UniProt Q9NR97)
assay.remarks: TLR8 inhibition reporter assay (HEK-Blue cells, SEAP reporter, R848 stimulation)
conditions: HEK-Blue cells overexpressing human TLR8, R848 15.9 μM
pIC50: −log10 of the molar value.
compounds and their reported pIC50
measured.property: pIC50

compound	measured.property	assay.value
COc1ccc(-c2[nH]c3ccc(C4CCNC(=O)C4)cc3c2C(C)C)cc1OC (centres unmarked)	pIC50	6.72
COc1ccc(-c2[nH]c3ccc(C4CCN(C(=O)[C@@H]5CCCN5C(C)=O)CC4)cc3c2CC(F)(F)F)cc1OC	pIC50	6.16
COc1ccc(-c2[nH]c3ccc(C4CCN(C5CCN(Cc6cccn6C)CC5)CC4)cc3c2C)cc1OC	pIC50	6.84
COc1ccc(-c2[nH]c3ccc(C4CCN(C(=O)CN5CCCN(C)CC5)CC4)cc3c2C(C)C)cc1OC	pIC50	7.77
COc1ccc(-c2[nH]c3ccc(C4CCN(C(=O)CN5CCC(N(C)C)CC5)CC4)cc3c2C(C)C)cc1OC	pIC50	7.80
COc1ccc(-c2[nH]c3ccc(C4CCN(C(=O)CN[C@H](C)C(C)C)CC4)cc3c2C2CCOCC2)cc1OC	pIC50	6.18
COc1ccc(-c2[nH]c3ccc(C4CCN(C(=O)CN5CCCC(CO)C5)CC4)cc3c2C(C)C)cc1OC (centres unmarked) [Example 249]	pIC50	7.77
CNCCN1CCC(c2ccc3c(c2)c(C)c(-c2ccc(OC)c(OC)c2)n3C)CC1	pIC50	6.02
COc1ccc(-c2[nH]c3ccc(C4CCN(C(=O)CN5CCC[C@H](C(=O)NC6(CO)CCCC6)C5)CC4)cc3c2C(C)C)cc1OC	pIC50	7.66
COc1ccc(-c2[nH]c3ccc(C4CCN(C5CCN(CC(C)C)CC5)CC4)cc3c2C(C)C)cc1OC	pIC50	7.72
COc1ccc(-c2[nH]c3ccc(C4CCN(C(=O)CN[C@@H](CO)CC(C)C)CC4)cc3c2C(C)C)cc1OC	pIC50	7.20
COc1ccc(-c2[nH]c3ccc(C4CCN(C(=O)CCC(N)=O)CC4)cc3c2CC(F)(F)F)cc1OC	pIC50	6.15
CCc1c(-c2ccc(OC)c(OC)c2)[nH]c2ccc(C3CCN(C(=O)CN4CCCC(C(=O)N(CC)CC)C4)CC3)cc12 (single isomer, unassigned) [Example 179]	pIC50	7.17
COc1ccc(-c2[nH]c3ccc(C4CCN(CC(=O)NCCCCN5CCCC5)CC4)cc3c2CC(F)(F)F)cc1OC	pIC50	7.40

Hey, just so you know, these numbers are from patent US11180474B2.
